target: CaAbp1-D1; experiment: SPOT peptide array binding signal intensity (averaged, normalized) (arbitrary units (background-subtracted, floor 0; scale differs between SH3 domains)); higher = stronger binding of the SH3 domain to the peptide
Consider the following binders; for each one, report its SPOT peptide array binding signal intensity.

Batch lookup, SPOT peptide array binding signal intensity per entry.
1. GDHPKGPPPPPPPPD
2. VPKEPAPAPPPEPDM
3. QPPLPSSAPPIPTSH
4. TPTSGPPLLPPRNTM
5. LKVTPGRRAPTISKI

["≤ 0", "≤ 0", "≤ 0", "≤ 0", 435]

Batch lookup, SPOT peptide array binding signal intensity per entry.
1. DLFKPLPEPPTELGR
2. RMVRRRPLRVQFSAR
3. QLLNPNRRAPRRPLS
4. TPEIPPPLPPKIMVH
5. NRARYLPQNPDIIAG

≤ 0
820
608
6.5
≤ 0
